target: Chymotrypsin, from human pancreas (human, UniProt P17538 19-263); assay: cell-based or functional assay
Sequence (P17538 19-263): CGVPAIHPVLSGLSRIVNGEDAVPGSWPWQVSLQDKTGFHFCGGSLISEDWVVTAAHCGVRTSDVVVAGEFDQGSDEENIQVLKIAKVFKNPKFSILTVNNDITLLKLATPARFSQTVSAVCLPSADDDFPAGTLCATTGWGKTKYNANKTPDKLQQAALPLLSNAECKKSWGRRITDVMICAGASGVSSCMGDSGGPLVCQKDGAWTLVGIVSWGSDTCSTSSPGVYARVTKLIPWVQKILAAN
reportedMetric: % inhibition at 100 µM (%)
Provide only the numeric value, understood in %.

Example results:
FCTKSDPPICS (HELM PEPTIDE1{F.C.T.K.S.D.P.P.I.C.S.[dI].P}$PEPTIDE1,PEPTIDE1,2:R3-10:R3|PEPTIDE1,PEPTIDE1,1:R1-13:R2$$$V2.0; SMILES CC[C@@H](C)[C@H]1NC(=O)[C@H](CO)NC(=O)[C@@H]2CSSC[C@H](NC(=O)[C@H](Cc3ccccc3)NC(=O)[C@@H]3CCCN3C1=O)C(=O)N[C@@H]([C@@H](C)O)C(=O)N[C@@H](CCCCN)C(=O)N[C@@H](CO)C(=O)N[C@@H](CC(=O)O)C(=O)N1CCC[C@H]1C(=O)N1CCC[C@H]1C(=O)N[C@@H]([C@@H](C)CC)C(=O)N2) [Example 73]    0
FCTKSDPPICS (HELM PEPTIDE1{F.C.T.K.S.D.P.P.I.C.S.[dP].D}$PEPTIDE1,PEPTIDE1,2:R3-10:R3|PEPTIDE1,PEPTIDE1,1:R1-13:R2$$$V2.0; SMILES CC[C@H](C)[C@@H]1NC(=O)[C@@H]2CCCN2C(=O)[C@@H]2CCCN2C(=O)[C@H](CC(=O)O)NC(=O)[C@H](CO)NC(=O)[C@H](CCCCN)NC(=O)[C@H]([C@@H](C)O)NC(=O)[C@@H]2CSSC[C@H](NC1=O)C(=O)N[C@@H](CO)C(=O)N1CCC[C@@H]1C(=O)N[C@@H](CC(=O)O)C(=O)N[C@@H](Cc1ccccc1)C(=O)N2) [Example 47]    1

Prompt line: Any idea what its % inhibition at 100 µM is? The binder is FCTKSDPPICN (HELM PEPTIDE1{F.C.T.K.S.D.P.P.I.C.N.[dP].P}$PEPTIDE1,PEPTIDE1,2:R3-10:R3|PEPTIDE1,PEPTIDE1,1:R1-13:R2$$$V2.0; SMILES CC[C@H](C)[C@@H]1NC(=O)[C@@H]2CCCN2C(=O)[C@@H]2CCCN2C(=O)[C@H](CC(=O)O)NC(=O)[C@H](CO)NC(=O)[C@H](CCCCN)NC(=O)[C@H]([C@@H](C)O)NC(=O)[C@@H]2CSSC[C@H](NC1=O)C(=O)N[C@@H](CC(N)=O)C(=O)N1CCC[C@@H]1C(=O)N1CCC[C@H]1C(=O)N[C@@H](Cc1ccccc1)C(=O)N2) [Example 3]
Response line: 0

Prompt line: Can you look up the measured % inhibition at 100 µM of ICTXSDPPICR (HELM PEPTIDE1{I.C.T.[Nle].S.D.P.P.I.C.R.[dP].P}$PEPTIDE1,PEPTIDE1,2:R3-10:R3|PEPTIDE1,PEPTIDE1,1:R1-13:R2$$$V2.0; SMILES CCCC[C@@H]1NC(=O)[C@H]([C@@H](C)O)NC(=O)[C@@H]2CSSC[C@H](NC(=O)[C@H]([C@@H](C)CC)NC(=O)[C@@H]3CCCN3C(=O)[C@@H]3CCCN3C(=O)[C@H](CC(=O)O)NC(=O)[C@H](CO)NC1=O)C(=O)N[C@@H](CCCNC(=N)N)C(=O)N1CCC[C@@H]1C(=O)N1CCC[C@H]1C(=O)N[C@@H]([C@@H](C)CC)C(=O)N2) [Example 59] for me?
Response line: 0
